Please respond with reported growth for every item in the list.
test system: SF-268 CNS; experiment: NCI-60 one-dose screen, 48 h (100 = growth as untreated, 0 = no growth, -100 = all killed); settings: 10 µM unless noted
About 83,000 compounds went through this panel and 20% of them were active in at least one assay; those are over-represented in the sample as a whole. Activity calls are given as the source filed them. The calls were made as follows: active = growth percent below 10; inactive = the rest.

Hi there! I need growth for each item below, if you can.
1. COC(=O)[C@H](C[C@H](Cc1ccccc1)NC(=O)c1csc([C@@H](C[C@H](C(C)C)N(C)C(=O)[C@@H](NC(=O)[C@H]2CCCCN2C)C(C)C)OC(C)=O)n1)NC(=O)OCc1ccccc1
2. CC[C@H](C)[C@H](NC(=O)C12C3C4C1C1C2C3C41NC(C)=O)C(=O)N(C)[C@H](C[C@@H](OC(C)=O)c1nc(C(=O)N[C@@H](Cc2ccccc2)C[C@H](C)C(=O)OC)cs1)C(C)C (stereo partly drawn)
3. CCCOC(=O)N[C@H]1CCc2c(Br)c(OC)c(OC)c(OC)c2-c2ccc(SC)c(=O)cc21

["13.1% [8.5 µM] (inactive)", "27.5% (inactive)", "17.8% (inactive)"]
